# Target Desc: furin, P09958;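 note: purified furin at 1:10 enzyme:substrate in 50 mM HEPES pH 7.5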
# Sequence (P09958 whole entry): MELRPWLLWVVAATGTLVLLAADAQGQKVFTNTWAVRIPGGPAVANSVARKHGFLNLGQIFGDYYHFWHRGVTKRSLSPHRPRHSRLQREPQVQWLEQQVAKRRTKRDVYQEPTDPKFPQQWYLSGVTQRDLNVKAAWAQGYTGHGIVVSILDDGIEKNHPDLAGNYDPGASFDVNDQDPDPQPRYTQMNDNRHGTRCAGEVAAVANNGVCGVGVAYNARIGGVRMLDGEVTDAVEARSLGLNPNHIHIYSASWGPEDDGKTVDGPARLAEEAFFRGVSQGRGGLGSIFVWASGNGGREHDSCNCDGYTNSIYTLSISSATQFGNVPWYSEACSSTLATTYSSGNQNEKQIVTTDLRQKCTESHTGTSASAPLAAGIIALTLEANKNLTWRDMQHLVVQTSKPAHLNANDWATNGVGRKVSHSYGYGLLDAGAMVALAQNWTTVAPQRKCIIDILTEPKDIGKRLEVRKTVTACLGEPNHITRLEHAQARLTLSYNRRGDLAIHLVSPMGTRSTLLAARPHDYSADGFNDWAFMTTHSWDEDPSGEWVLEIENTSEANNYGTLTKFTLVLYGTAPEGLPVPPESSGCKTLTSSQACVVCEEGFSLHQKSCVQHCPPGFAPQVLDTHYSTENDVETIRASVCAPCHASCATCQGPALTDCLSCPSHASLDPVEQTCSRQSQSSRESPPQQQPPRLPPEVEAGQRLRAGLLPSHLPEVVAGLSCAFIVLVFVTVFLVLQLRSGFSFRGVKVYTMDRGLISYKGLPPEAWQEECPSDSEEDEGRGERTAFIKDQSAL
# Assay Name: furin cleavage Z-score vs untreated control; higher = more cleavage, active = 3.5 or more, inactive = 1 or less, 8 variable residues between constant flanks
# Measurement Setup: 15 min
This is one part of the list. How many sequences the whole screen found active is unknown.
The label depends only on furin cleavage Z-score: Satisfied if it is at least 0.3, Not satisfied if it is smaller.

Examples with answers:
CAVQWMNRLIAGNASASA [HC1117]	Not satisfied
CAALIRKLRDAGNASASA [FS-1303]	Satisfied
CAATCTANHDAGNASASA [HC1267]	Not satisfied

Quick check: does CAINRRTGRPAGNASASA [FS-34] have furin cleavage Z-score greater than or equal to 0.3?
Not satisfied

Quick check: does CAYGAKDVRCAGNASASA [HC1422] have furin cleavage Z-score greater than or equal to 0.3?
Satisfied

Quick check: does CAEVVVSTWVAGNASASA [HC123] have furin cleavage Z-score greater than or equal to 0.3?
Not satisfied
